biological target: K-Ras WT (Homo sapiens, UniProt P01116); assay: HTRF resonance energy transfer assay, K-Ras WT / SOS1 interaction; conditions: HTRF assay of Example 5; read-out: IC50 against K-Ras WT
Sequence (P01116 1-188 isoform P01116-2): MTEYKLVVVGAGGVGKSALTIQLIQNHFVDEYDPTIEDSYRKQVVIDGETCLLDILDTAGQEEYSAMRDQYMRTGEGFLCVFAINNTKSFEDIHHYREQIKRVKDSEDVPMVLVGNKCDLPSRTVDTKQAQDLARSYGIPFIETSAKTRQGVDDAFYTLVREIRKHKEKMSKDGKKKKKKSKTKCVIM
pIC50: −log10 of the molar value.
# pIC50 annotations

The compound listed as C[C@H]1CN(CCN(C)C)c2nc(OC[C@@]34CCCN3C[C@H](F)C4)nc3c(F)c(-c4ccc(F)c5sc(N)c(C#N)c45)c(Cl)c(c23)O1 [Compound 950] shows pIC50 equal to > 7.00

The compound listed as N#Cc1c(N)sc2c(F)ccc(-c3c(Cl)c4c5c(nc(OC[C@@]67CCCN6C[C@H](F)C7)nc5c3F)N(CC3CC3C#N)CCO4)c12 (stereo partly drawn) [Compound 738] shows pIC50 equal to > 7.00

The compound listed as N#Cc1c(N)sc2c(F)ccc(-c3c(Cl)c4c5c(nc(OC[C@@]67CCCN6C[C@H](F)C7)nc5c3F)N[C@@H](C(F)F)CO4)c12 [Compound 618] shows pIC50 equal to > 7.00

---

test system: SW620 cells; assay: Ras cellular assay, growth of cells with K-Ras G12V mutation (CellTiter-Glo); type: cell-based; details: Homo sapiens, SW-620; cell growth, Example 9, G12V mutation; read-out: IC50 against SW620 cells
pIC50: −log10 of the molar value.
Outcome Measure: pIC50

Cc1cc(N)nc(-c2c(Cl)c3c4c(nc(OC[C@@]56CCCN5C[C@H](F)C6)nc4c2F)N(CC(F)F)CCO3)c1I :: > 5.30
CN(C)C1(CN2CCOc3c(Cl)c(-c4ccc(F)c5sc(N)c(C#N)c45)c(F)c4nc(OC[C@@]56CCCN5C[C@H](F)C6)nc2c34)CC1 :: > 5.30

We now examine a further compound.
The compound listed as C[C@H]1COc2c(Cl)c(-c3ccc(F)c4sc(N)c(C#N)c34)c(F)c3nc(OC[C@@]45CCCN4C[C@H](F)C5)nc(c23)N1C1CCN(C(=O)C2CC2C#N)CC1 (stereo partly drawn) shows pIC50 equal to > 5.30

---

target: K-Ras G12S (Homo sapiens, UniProt P01116, G12S); test: HTRF resonance energy transfer assay, K-Ras G12S / SOS1 interaction; details: HTRF assay of Example 5; read-out: IC50 against K-Ras G12S
Sequence (P01116 1-188 isoform P01116-2 G12S): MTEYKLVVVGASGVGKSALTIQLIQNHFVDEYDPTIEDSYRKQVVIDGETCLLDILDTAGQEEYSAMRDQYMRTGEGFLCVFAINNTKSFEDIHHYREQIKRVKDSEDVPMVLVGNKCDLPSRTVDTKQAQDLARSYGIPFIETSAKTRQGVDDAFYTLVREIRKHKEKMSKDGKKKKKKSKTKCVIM
# IC50 annotations

C=C[C@H]1COc2c(Cl)c(-c3ccc(F)c4sc(N)c(C#N)c34)c(F)c3nc(OC[C@@]45CCCN4C[C@H](F)C5)nc(c23)N1CC(F)F (single isomer, unassigned) [Compound 890] :: < 100 nM
N#Cc1c(N)sc2c(F)ccc(-c3c(Cl)c4c5c(nc(OC[C@@]67CCCN6C[C@H](F)C7)nc5c3F)N(C3CCC(NC(=O)C(F)F)C3)CCO4)c12 (stereo partly shown) [Compound 673] :: < 100 nM
COCC(=O)N1CCC(N2CCOc3c(Cl)c(-c4ccc(F)c5sc(N)c(C#N)c45)c(F)c4nc(OC[C@@]56CCCN5C[C@H](F)C6)nc2c34)C1 (stereo partly shown) [Compound 1134] :: < 100 nM
N#Cc1c(N)sc2c(F)ccc(-c3c(Cl)c4c5c(nc(OC[C@@]67CCCN6C[C@H](F)C7)nc5c3F)N(CC(F)F)[C@@H](CNC(=O)CC3COC3)CO4)c12 [Compound 766] :: < 100 nM
N#Cc1c(N)sc2c(F)ccc(-c3c(Cl)c4c5c(nc(OC[C@@]67CCCN6C[C@H](F)C7)nc5c3F)N(C3CCOC3)CC(CF)O4)c12 (stereo partly shown) [Compound 628] :: < 100 nM
CO[C@@H](C)C(=O)N1CCC(N2CCOc3c(Cl)c(-c4ccc(F)c5sc(N)c(C#N)c45)c(F)c4nc(OC[C@@]56CCCN5C[C@H](F)C6)nc2c34)C1 (stereo partly shown) [Compound 742] :: < 100 nM
CC(CO)N1CCOc2c(Cl)c(-c3ccc(F)c4sc(N)c(C#N)c34)c(F)c3nc(OC[C@@]45CCCN4C[C@H](F)C5)nc1c23 (stereo partly shown) [Compound 937] :: < 100 nM
Cn1cc(N2CCOc3c(Cl)c(-c4ccc(F)c5sc(N)c(C#N)c45)c(F)c4nc(OC[C@@]56CCCN5C[C@H](F)C6)nc2c34)cn1 [Compound 765] :: < 100 nM
N#Cc1c(N)sc2c(F)ccc(-c3c(Cl)c4c5c(nc(OC[C@@]67CCCN6C[C@H](F)C7)nc5c3F)N(C3CCCN(C(=O)[C@@H]5N[C@H]5C5CC5)C3)CCO4)c12 (stereo partly shown) [Compound 643] :: < 100 nM
N#Cc1c(N)sc2c(F)ccc(-c3c(Cl)c4c5c(nc(OC[C@@]67CCCN6C[C@H](F)C7)nc5c3F)N(CC(F)F)C(CCO)CO4)c12 (single isomer, unassigned) [Compound 1049] :: < 100 nM

The molecule listed as N#Cc1c(N)sc2c(F)ccc(-c3c(Cl)c4c5c(nc(OC[C@@]67CCCN6C[C@H](F)C7)nc5c3F)N([C@H]3CCOC3)CCO4)c12 [Compound 793] shows IC50 equal to < 100 nM

The molecule listed as C[C@@H](O)[C@H]1COc2c(Cl)c(-c3ccc(F)c4sc(N)c(C#N)c34)c(F)c3nc(OC[C@@]45CCCN4C[C@H](F)C5)nc(c23)N1CCC(F)F (single isomer, unassigned) [Compound 820] shows IC50 equal to < 100 nM

The molecule listed as N#Cc1c(N)sc2c(F)ccc(-c3c(Cl)c4c5c(nc(OC[C@@]67CCCN6C[C@H](F)C7)nc5c3F)N(CCC(F)F)[C@@H](C(F)F)CO4)c12 [Compound 1035] shows IC50 equal to < 100 nM

The molecule listed as N#Cc1c(N)sc2c(F)ccc(-c3c(Cl)c4c5c(nc(OC[C@@]67CCCN6C[C@H](F)C7)nc5c3F)N(CC(F)F)CCC(CO)O4)c12 (single isomer, unassigned) [Compound 1207] shows IC50 equal to < 100 nM

The molecule listed as CNCCCN1CCOc2c(Cl)c(-c3ccc(F)c4sc(N)c(C#N)c34)c(F)c3nc(OC[C@@]45CCCN4C[C@H](F)C5)nc1c23 [Compound 778] shows IC50 equal to < 100 nM

The molecule listed as CNC(=O)C1CC(N2CCOc3c(Cl)c(-c4ccc(F)c5sc(N)c(C#N)c45)c(F)c4nc(OC[C@@]56CCCN5C[C@H](F)C6)nc2c34)C1 (stereo partly shown) [Compound 859] shows IC50 equal to < 100 nM

The molecule listed as CC(O)C1C(C)Oc2c(Cl)c(-c3ccc(F)c4sc(N)c(C#N)c34)c(F)c3nc(OC[C@@]45CCCN4C[C@H](F)C5)nc(c23)N1CC(F)F (stereo partly shown) [Compound 646] shows IC50 equal to < 100 nM

The molecule listed as C[C@H](O)[C@H]1[C@H](C)Oc2c(Cl)c(-c3ccc(F)c4sc(N)c(C#N)c34)c(F)c3nc(OC[C@@]45CCCN4C[C@H](F)C5)nc(c23)N1CC(F)F [Compound 1042] shows IC50 equal to < 100 nM

The molecule listed as N#Cc1c(N)sc2c(F)ccc(-c3c(Cl)c4c5c(nc(OC[C@@]67CCCN6C[C@H](F)C7)nc5c3F)N(C3CCN(C(=O)C5COC5)C3)CCO4)c12 (stereo partly shown) [Compound 757] shows IC50 equal to < 100 nM

The molecule listed as C[C@H](Oc1nc2c3c(c(Cl)c(-c4ccc(F)c5sc(N)c(C#N)c45)c(F)c3n1)OCCN2C1CCCOC1)[C@@H]1CCCN1C (stereo partly shown) [Compound 880] shows IC50 equal to < 100 nM

The molecule listed as N#Cc1c(N)sc2c(F)ccc(-c3c(Cl)c4c5c(nc(OC[C@@]67CCCN6C[C@H](F)C7)nc5c3F)N(CC3CCCN3C(=O)C3CN3)CCO4)c12 (stereo partly shown) [Compound 811] shows IC50 equal to < 100 nM

The molecule listed as COCC1COc2c(Cl)c(-c3ccc(F)c4sc(N)c(C#N)c34)c(F)c3nc(OC[C@@]45CCCN4C[C@H](F)C5)nc(c23)N1C (stereo partly shown) [Compound 887] shows IC50 equal to < 100 nM

---

target: K-Ras G12V (Homo sapiens, UniProt P01116, G12V); test: HTRF resonance energy transfer assay, K-Ras G12V / SOS1 interaction; settings: HTRF assay of Example 5; read-out: IC50 against K-Ras G12V
Sequence (P01116 1-188 isoform P01116-2 G12V): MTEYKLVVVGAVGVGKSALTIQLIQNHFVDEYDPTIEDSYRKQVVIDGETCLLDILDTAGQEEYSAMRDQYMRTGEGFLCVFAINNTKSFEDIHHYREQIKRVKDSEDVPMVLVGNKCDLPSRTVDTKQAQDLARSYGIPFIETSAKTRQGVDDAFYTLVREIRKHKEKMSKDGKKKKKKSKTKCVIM
pIC50: −log10 of the molar value.
# pIC50 annotations

Worked cases, pIC50 given:
C[C@H]1COc2c(Cl)c(-c3ccc(F)c4sc(N)c(C#N)c34)c(F)c3nc(OC[C@@]45CCCN4C[C@H](F)C5)nc(c23)N1C1CCOC1 (stereo partly drawn) [Compound 750] :: > 7.00
COCC1COc2c(Cl)c(-c3ccc(F)c4sc(N)c(C#N)c34)c(F)c3nc(OC[C@@]45CCCN4C[C@H](F)C5)nc(c23)N1C (stereo partly drawn) [Compound 887] :: > 7.00
N#Cc1c(N)sc2c(F)ccc(-c3c(Cl)c4c5c(nc(OC[C@@]67CCCN6C[C@H](F)C7)nc5c3F)N(C3CC35CCN(C=O)C5)CCO4)c12 (stereo partly drawn) [Compound 1091] :: > 7.00
C#Cc1c(F)ccc2cc(O)cc(-c3nc4c5c(nc(OC[C@@]67CCCN6C[C@H](F)C7)nc5c3F)N(C3CCNC3)CCO4)c12 (stereo partly drawn) [Compound 939] :: > 7.00
CC(O)C1COc2c(Cl)c(-c3ccc(F)c4sc(N)c(C#N)c34)c(F)c3nc(OC[C@@]45CCCN4C[C@H](F)C5)nc(c23)N1CC1CCCNC1 (stereo partly drawn) [Compound 764] :: > 7.00

We now examine a further compound.
The compound listed as N#Cc1c(N)sc2c(F)ccc(-c3c(Cl)c4c5c(nc(OC[C@@]67CCCN6C[C@H](F)C7)nc5c3F)N(CC(F)F)[C@@H](C(F)F)CO4)c12 [Compound 1057] shows pIC50 equal to > 7.00
